TARGET_SYSTEM: T1, 14-3-3η (purified, recombinant) (UniProt Q04917 1-246)
T1 chain: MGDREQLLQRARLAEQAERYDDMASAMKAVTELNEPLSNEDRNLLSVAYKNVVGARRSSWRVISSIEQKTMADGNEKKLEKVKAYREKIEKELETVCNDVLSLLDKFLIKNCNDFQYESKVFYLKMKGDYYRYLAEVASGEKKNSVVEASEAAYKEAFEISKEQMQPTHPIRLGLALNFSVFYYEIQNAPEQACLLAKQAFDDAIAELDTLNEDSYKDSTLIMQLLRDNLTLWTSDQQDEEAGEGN
PROTOCOL_DETAILS: FP
Square brackets hold non-standard residues; d marks the D form. Ends that are not written are not given here. * marks the point of attachment. FITC = O=C1OC2(c3ccc(O)cc3Oc3cc(O)ccc32)c2ccc(NC(=S)*)cc21; pS = N[C@@H](COP(=O)(O)O)C(=O)O
ASSAY_ENDPOINT: Kd (µM)

P = {FITC}-RPRSR[pS]LSPGRSP [MAST1^156-168 p-S161]
Q = {FITC}-DGRRW[pS]LASLPSS [MAST1^85-97 p-S90]
### Prompt Of the two listed items, which has the higher Kd? First: P Second: Q Your choice should be expressed through its label.
### Response Q
(Q: 12.3 µM, P: 3.6 µM)

Numbers sourced from paper PMC13598245.
